Target protein (sequence): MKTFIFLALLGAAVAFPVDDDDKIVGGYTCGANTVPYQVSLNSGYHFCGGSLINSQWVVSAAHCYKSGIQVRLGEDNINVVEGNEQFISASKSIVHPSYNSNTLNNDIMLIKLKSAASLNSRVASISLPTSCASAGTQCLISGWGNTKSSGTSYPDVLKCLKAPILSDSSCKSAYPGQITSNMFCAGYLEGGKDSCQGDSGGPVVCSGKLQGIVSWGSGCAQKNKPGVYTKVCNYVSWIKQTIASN
Let's look at some molecules and their measured Ki.

# molecule, relation, Ki / µM
measured = [
    ("Nc1nc2c(s1)CC(NC(=O)[C@@H]1CCCN1C(=O)[C@@H](CC1CCCCC1)NS(=O)(=O)Cc1ccccc1)CC2 (stereo partly shown) [drawing 91]", ">", 68.3),
    ("Nc1nc2c(s1)CC(NC(=O)[C@@H]1CCCN1C(=O)[C@@H](Cc1ccccc1)NS(=O)(=O)Cc1ccccc1)CC2 (stereo partly shown) [drawing 96]", ">", 68.3),
    ("Nc1nc2c(s1)CC(CNC(=O)[C@@H]1CCCN1C(=O)[C@@H](CC1CCCCC1)NS(=O)(=O)Cc1ccccc1)CC2 (stereo partly shown) [drawing 95]", "=", 39.9),
    ("O=C(NCC1CCc2n[nH]cc2C1)[C@@H]1CCCN1C(=O)[C@@H](CC1CCCCC1)NS(=O)(=O)Cc1ccccc1 (stereo partly shown) [drawing 92]", "=", 177),
]

====

Let's look at some compounds and their measured melting point.

# compound, melting point
data = [
    ("CC(C)(C)OC(=O)N[C@H](Cc1ccc(Cl)c(Cl)c1)C(=O)N1CCC[C@H]1C(=O)NCC1CCc2n[nH]cc2C1 (some centres unmarked)", "100 to 103 °C"),
    ("O=C(NC1CCc2n[nH]cc2C1)[C@@H]1CCCN1C(=O)[C@@H](Cc1ccccc1)NS(=O)(=O)Cc1ccccc1 (some centres unmarked)", "114 to 116 °C"),
    ("CC(C)(C)OC(=O)N[C@@H](C(=O)N1CCC[C@H]1C(=O)NCC1CCc2n[nH]cc2C1)C(c1ccccc1)c1ccccc1 (some centres unmarked)", "113 to 116 °C"),
    ("Cl.Cl.Nc1nc2c(s1)CC(NC(=O)[C@@H]1CCCN1C(=O)[C@@H](CC1CCCCC1)NCC(=O)O)CC2 (some centres unmarked)", "180 to 182 °C"),
    ("Cl.Cl.Nc1ncc2c(n1)CCC(NC(=O)[C@@H]1CCCN1C(=O)[C@@H](N)C(c1ccccc1)c1ccccc1)C2 (some centres unmarked)", "212 to 215 °C"),
    ("CC(C)(C)OC(=O)N[C@H](Cc1ccccc1)C(=O)N1CCC[C@H]1C(=O)NC1CCc2nc(N)sc2C1 (some centres unmarked)", "120 to 123 °C"),
    ("Cl.Cl.N[C@H](Cc1ccccc1)C(=O)N1CCC[C@H]1C(=O)NC1CCc2n[nH]cc2C1 (some centres unmarked)", "203 to 206 °C"),
    ("Cl.Cl.Nc1nc2c(s1)CC(NC(=O)[C@@H]1CCCN1C(=O)[C@H](N)Cc1ccccc1)CC2 (some centres unmarked)", "225 to 228 °C"),
    ("Nc1ncc2c(n1)CCC(NC(=O)[C@@H]1CCCN1C(=O)[C@@H](CC1CCCCC1)NS(=O)(=O)Cc1ccccc1)C2 (some centres unmarked)", "114 to 117 °C"),
    ("CC(C)(C)OC(=O)N[C@H](C(=O)N1CCC[C@H]1C(=O)NC1CCc2nc(N)ncc2C1)C(c1ccccc1)c1ccccc1 (some centres unmarked)", "127 to 130 °C"),
    ("CC(C)(C)OC(=O)N[C@H](Cc1ccccc1)C(=O)N1CCC[C@H]1C(=O)NC1CCc2n[nH]cc2C1 (some centres unmarked)", "108 to 110 °C"),
    ("Nc1nc2ccc(NC(=O)CNC(=O)[C@@H](Cc3ccccc3)NS(=O)(=O)Cc3ccccc3)cc2s1", "127 to 130 °C"),
    ("Nc1ncc2c(n1)CCC(NC(=O)[C@@H]1CCCN1C(=O)[C@@H](Cc1ccccc1)NS(=O)(=O)Cc1ccccc1)C2 (some centres unmarked)", "117 to 120 °C"),
    ("CC(C)(C)OC(=O)N[C@@H](C(=O)N1CCC[C@H]1C(=O)NCC1CCc2nc(N)ncc2C1)C(c1ccccc1)c1ccccc1 (some centres unmarked)", "127 to 130 °C"),
    ("CC(C)(C)OC(=O)CN(C(=O)OC(C)(C)C)[C@H](CC1CCCCC1)C(=O)N1CCC[C@H]1C(=O)NC1CCc2nc(N)sc2C1 (some centres unmarked)", "95 to 101 °C"),
    ("CC(C)(C)OC(=O)N[C@H](Cc1ccc(Cl)c(Cl)c1)C(=O)N1CCC[C@H]1C(=O)NC1CCc2nc(N)ncc2C1 (some centres unmarked)", "114 to 117 °C"),
    ("Nc1nc2c(s1)CC(NC(=O)[C@@H]1CCCN1C(=O)[C@@H](Cc1ccccc1)NS(=O)(=O)c1ccc3ccccc3c1)CC2 (some centres unmarked)", "128 to 131 °C"),
    ("Nc1ncc2c(n1)CCC(CNC(=O)[C@@H]1CCCN1C(=O)[C@@H](Cc1ccccc1)NS(=O)(=O)Cc1ccccc1)C2 (some centres unmarked)", "118 to 121 °C"),
    ("CC(C)(C)OC(=O)N[C@H](Cc1ccc(Cl)c(Cl)c1)C(=O)N1CCC[C@H]1C(=O)NC1CCc2nc(N)sc2C1 (some centres unmarked)", "116 to 119 °C"),
    ("Nc1ncc2c(n1)CCC(CNC(=O)[C@@H]1CCCN1C(=O)[C@@H](CC1CCCCC1)NS(=O)(=O)Cc1ccccc1)C2 (some centres unmarked)", "118 to 121 °C"),
    ("CC(C)(C)OC(=O)N[C@H](C(=O)N1CCC[C@H]1C(=O)NC1CCc2nc(N)sc2C1)C(c1ccccc1)c1ccccc1 (some centres unmarked)", "127 to 130 °C"),
    ("Cl.Cl.Nc1nc2c(s1)CC(NC(=O)[C@@H]1CCCN1C(=O)[C@@H](N)C(c1ccccc1)c1ccccc1)CC2 (some centres unmarked)", "155 to 158 °C"),
    ("C[C@H](NC(=O)[C@@H](Cc1ccccc1)NS(=O)(=O)Cc1ccccc1)C(=O)NC1CCc2nc(N)sc2C1 (some centres unmarked)", "122 to 125 °C"),
    ("Nc1nc2ccc(NC(=O)[C@@H]3CCCN3C(=O)[C@@H](Cc3ccccc3)NS(=O)(=O)Cc3ccccc3)cc2s1", "130 to 133 °C"),
    ("CC(C)(C)OC(=O)N[C@@H](C(=O)N1CCC[C@H]1C(=O)NC1CCc2nc(N)ncc2C1)C(c1ccccc1)c1ccccc1 (some centres unmarked)", "128 to 131 °C"),
    ("Nc1nc2c(s1)CC(NC(=O)[C@@H]1CCCN1C(=O)CNC(c1ccccc1)(c1ccccc1)c1ccccc1)CC2 (some centres unmarked)", "125 to 128 °C"),
    ("Cl.Cl.O=C(O)CN[C@H](CC1CCCCC1)C(=O)N1CCC[C@H]1C(=O)NCC1CCc2n[nH]cc2C1 (some centres unmarked)", "144 to 147 °C"),
    ("Cl.Cl.Nc1ncc2c(n1)CCC(NC(=O)[C@@H]1CCCN1C(=O)[C@H](N)Cc1ccc(Cl)c(Cl)c1)C2 (some centres unmarked)", "201 to 204 °C"),
    ("O=C(NCC1CCc2n[nH]cc2C1)[C@@H]1CCCN1C(=O)[C@@H](CC1CCCCC1)NS(=O)(=O)Cc1ccccc1 (some centres unmarked)", "100 to 103 °C"),
]

====

# compound, melting point
data = [
    ("CC(C)(C)OC(=O)N[C@H](Cc1ccc(Cl)c(Cl)c1)C(=O)N1CCC[C@H]1C(=O)NC1CCc2n[nH]cc2C1 (stereo partly shown) [Example 16]", "116 to 119 °C"),
    ("O=C(NC1CCc2n[nH]cc2C1)[C@@H]1CCCN1C(=O)[C@@H](CC1CCCCC1)NS(=O)(=O)Cc1ccccc1 (stereo partly shown) [Example 22]", "106 to 109 °C"),
    ("Cl.Cl.Nc1ncc2c(n1)CCC(CNC(=O)[C@@H]1CCCN1C(=O)[C@H](N)C(c1ccccc1)c1ccccc1)C2 (stereo partly shown)", "166 to 168 °C"),
    ("CC(C)(C)OC(=O)N[C@H](C(=O)N1CCC[C@H]1C(=O)NC1CCc2n[nH]cc2C1)C(c1ccccc1)c1ccccc1 (stereo partly shown) [Example 15]", "127 to 130 °C"),
    ("Cl.Cl.N[C@H](Cc1ccc(Cl)c(Cl)c1)C(=O)N1CCC[C@H]1C(=O)NC1CCc2n[nH]cc2C1 (stereo partly shown)", "199 to 202 °C"),
    ("Nc1ncnc2ccc(NC(=O)[C@@H]3CCCN3C(=O)CNC(c3ccccc3)(c3ccccc3)c3ccccc3)cc12 [Example 42]", "> 250 °C"),
    ("Nc1nc2c(s1)CC(NC(=O)CNC(=O)[C@@H](Cc1ccccc1)NS(=O)(=O)Cc1ccccc1)CC2 (stereo partly shown) [Example 31]", "119 to 122 °C"),
]

Source of measurements: patent US7112590B2
